Source listed as PubChem BioAssay AID1963423.

test system: 439559-082-T-J2-PDC complex spheroid growth; assay: Anticancer human tumor 439559-082-T-J2-PDC patient-derived colon adenocarcinoma cell line growth inhibition [Asc]; conditions: curve of first compound; second compound 0.0949 µM;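 note: spheroids exposed to agents for 7 days starting day 3 after seeding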
Observable: IC50

// solved cases for IC50 follow
INSERT INTO results (compound, system_name, observable, observed_result) VALUES
  ('C=CC(=O)N1CCN(c2nc(=O)n(-c3c(C)ccnc3C(C)C)c3nc(-c4c(O)cccc4F)c(F)cc23)C(C)C1 (centres undefined) + CCN1C(C(=O)NC23CCC(C(=O)O)(CC2)CC3)C(c2cccc(Cl)c2F)C2(C(=O)Nc3cc(Cl)ccc32)C12CCCCC2', '439559-082-T-J2-PDC complex spheroid growth', 'IC50', '> 10000 nM'),
  ('CCN1CCN(Cc2ccc(Nc3ncc(F)c(-c4cc(F)c5nc(C)n(C(C)C)c5c4)n3)nc2)CC1 + CCN1C(C(=O)NC23CCC(C(=O)O)(CC2)CC3)C(c2cccc(Cl)c2F)C2(C(=O)Nc3cc(Cl)ccc32)C12CCCCC2', '439559-082-T-J2-PDC complex spheroid growth', 'IC50', '> 1000 nM'),
  ('O=C(c1ccc(F)c(F)c1Nc1ccc(I)cc1F)N1CC(O)([C@@H]2CCCCN2)C1 + CCN1C(C(=O)NC23CCC(C(=O)O)(CC2)CC3)C(c2cccc(Cl)c2F)C2(C(=O)Nc3cc(Cl)ccc32)C12CCCCC2', '439559-082-T-J2-PDC complex spheroid growth', 'IC50', '233 nM'),
  ('CNC(C)C(=O)NC1CN(S(=O)(=O)c2cccc(S(=O)(=O)N3CCC4CCC(C(=O)NC(c5ccccc5)c5ccccc5)N4C(=O)C(NC(=O)C(C)NC)C3)c2)CCC2CCC(C(=O)NC(c3ccccc3)c3ccccc3)N2C1=O (centres undefined) + CCN1C(C(=O)NC23CCC(C(=O)O)(CC2)CC3)C(c2cccc(Cl)c2F)C2(C(=O)Nc3cc(Cl)ccc32)C12CCCCC2', '439559-082-T-J2-PDC complex spheroid growth', 'IC50', '> 1000 nM'),
  ('NC1CCC(NC2CC2c2ccccc2)CC1 (centres undefined) + CCN1C(C(=O)NC23CCC(C(=O)O)(CC2)CC3)C(c2cccc(Cl)c2F)C2(C(=O)Nc3cc(Cl)ccc32)C12CCCCC2', '439559-082-T-J2-PDC complex spheroid growth', 'IC50', '> 100 nM'),
  ('Cc1nc(N2CCC3(CC2)COC(C)C3N)c(CO)nc1Sc1ccnc(N)c1Cl (centres undefined) + CCN1C(C(=O)NC23CCC(C(=O)O)(CC2)CC3)C(c2cccc(Cl)c2F)C2(C(=O)Nc3cc(Cl)ccc32)C12CCCCC2', '439559-082-T-J2-PDC complex spheroid growth', 'IC50', '> 3000 nM'),
  ('C#Cc1c(F)ccc2cc(O)cc(-c3ncc4c(N5CC6CCC(C5)N6)nc(OCC56CCCN5CC(F)C6)nc4c3F)c12 (centres undefined) + CCN1C(C(=O)NC23CCC(C(=O)O)(CC2)CC3)C(c2cccc(Cl)c2F)C2(C(=O)Nc3cc(Cl)ccc32)C12CCCCC2', '439559-082-T-J2-PDC complex spheroid growth', 'IC50', '2200 nM'),
  ('NC(=O)C(=Cn1cnc(-c2cc(C(F)(F)F)cc(C(F)(F)F)c2)n1)c1cncnc1 + CCN1C(C(=O)NC23CCC(C(=O)O)(CC2)CC3)C(c2cccc(Cl)c2F)C2(C(=O)Nc3cc(Cl)ccc32)C12CCCCC2', '439559-082-T-J2-PDC complex spheroid growth', 'IC50', '> 300 nM');

Attention now shifts to the item below.
Q: Given the entry COc1c(OCCCN2CCOCC2)ccc2c3n(c(=NC(=O)c4cnc(N)nc4)nc12)CCN3 + CCN1C(C(=O)NC23CCC(C(=O)O)(CC2)CC3)C(c2cccc(Cl)c2F)C2(C(=O)Nc3cc(Cl)ccc32)C12CCCCC2 , what IC50 was observed with 439559-082-T-J2-PDC complex spheroid growth?
Result: > 1000 nM
